- EXPERIMENTAL TARGET: human muscarinic acetylcholine M1 receptor (Homo sapiens, UniProt P11229)
- Construct: expressed in transfected cells; host or cells: CHO-K1
- Sequence (P11229 1-460): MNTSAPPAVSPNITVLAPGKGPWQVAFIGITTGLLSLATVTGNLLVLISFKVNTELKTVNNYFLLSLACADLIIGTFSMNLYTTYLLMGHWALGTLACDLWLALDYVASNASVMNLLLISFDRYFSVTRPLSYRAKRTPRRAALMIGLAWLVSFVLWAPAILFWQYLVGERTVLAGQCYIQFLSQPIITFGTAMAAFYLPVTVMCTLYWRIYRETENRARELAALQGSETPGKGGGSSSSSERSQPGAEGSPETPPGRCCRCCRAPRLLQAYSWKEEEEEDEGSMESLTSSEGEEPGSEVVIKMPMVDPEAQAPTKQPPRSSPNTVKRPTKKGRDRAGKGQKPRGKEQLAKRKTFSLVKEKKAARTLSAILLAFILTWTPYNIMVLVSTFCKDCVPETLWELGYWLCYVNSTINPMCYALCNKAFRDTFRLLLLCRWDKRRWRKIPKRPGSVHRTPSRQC
- PROCEDURE TEXT: M1 PAM Assay (IP-One HTRF, IP1 accumulation in M1-CHO cells)
- Format: cell-based
- STATED CONDITIONS: CHO-K1 cells stably transfected with human M1 receptor; compounds added with EC20 of acetylcholine (25 nM), 30 min; intracellular IP1 by IP-One HTRF; read-out: M1 PAM EC50
Where a name gives a salt, the structure may show the parent alone.
READOUT: EC50

MOLECULE	EC50
Cc1nc2c3c(nn2c(C)c1Cl)CN(C(=O)c1ccc(F)cc1O[C@H]1CCNC[C@H]1F)C3 (racemic)	0.2 to 1 µM
O=C(c1ccc(F)cc1OC1CCNCC1)N1Cc2nn3cc(Cl)cnc3c2C1 [Example 33, hydrochloride]	0.2 to 1 µM
Cc1nc2c3c(nn2c(C)c1Cl)C(CO)N(C(=O)c1ccccc1OC1CCN(C)CC1)C3 (stereo not drawn)	1 to 3 µM
Cc1nc2c3c(nn2c(C)c1Cl)CN(C(=O)c1ccccc1O[C@H]1CCC[C@@H]1O)C3 (racemic)	0.2 to 1 µM
CCN1CCC(Oc2cc(F)ccc2C(=O)N2Cc3nn4c(C)c(Cl)c(C)nc4c3C2)CC1	< 0.2 µM
CCCN1CCC(Oc2cc(F)ccc2C(=O)N2Cc3nn4c(C)c(Cl)c(C)nc4c3C2)CC1	< 0.2 µM
Cc1nc2c3c(nn2c(C)c1Cl)CN(C(=O)c1ccc(F)cc1OC1CCN(CC(O)C(F)(F)F)CC1)C3 (stereo not drawn)	0.2 to 1 µM
Cc1nc2c3c(nn2c(C)c1Cl)CN(C(=O)c1ccc(F)cc1O[C@@H]1CCN[C@@H](C)C1)C3 (stereo in doubt) [Example 24, hydrochloride]	0.2 to 1 µM

The molecule listed as Cc1nc2c3c(nn2c(C)c1Cl)CN(C(=O)c1ccc(F)cc1O[C@H]1CCN(C)C[C@@H]1F)C3 (racemic) shows EC50 equal to 0.2 to 1 µM

Form field EC50, entry Cc1nc2c3c(nn2c(C)c1Cl)CN(C(=O)c1ccc(F)cc1OCC1(N)CC1)C3 : 1 to 3 µM

// field: EC50; key: Cc1nc2c3c(nn2c(C)c1Cl)CN(C(=O)c1ccc(F)cc1OC1CC(N(C)C)C1)C3 (stereo not drawn) ; value = 0.2 to 1 µM

Recorded EC50 (molecule Cc1nc2c3c(nn2c(C)c1Cl)CN(C(=O)c1ccc(F)cc1O[C@@H]1CCNC1=O)C3 ): 0.2 to 1 µM

Record Cc1nc2c3c(nn2c(C)c1Cl)CN(C(=O)c1ccc(F)cc1O[C@H]1CN(C)C[C@@H]1O)C3 (racemic) , field EC50: 0.2 to 1 µM

Documented EC50 of Cc1nc2c3c(nn2c(C)c1Cl)CN(C(=O)c1ccccc1O[C@H]1CNC[C@@H]1O)C3 (racemic) : 0.2 to 1 µM

Lab note: measured EC50 of Cc1cncc(CCOc2cc(F)ccc2C(=O)N2Cc3nn4c(C)c(Cl)c(C)nc4c3C2)c1 was 0.2 to 1 µM

====

Here, each record is paired with measured EC50 data.
- EXPERIMENTAL TARGET: human muscarinic acetylcholine M1 receptor (Homo sapiens)
- Construct: expressed in transfected cells; host or cells: CHO-K1
- PROCEDURE TEXT: M1 PAM Assay (IP-One HTRF, IP1 accumulation in M1-CHO cells)
- Format: cell-based

MOLECULE	EC50
Cc1nc2c3c(nn2c(C)c1Cl)CN(C(=O)c1ccc(F)cc1OC1CC2CC(F)C(C1)N2C)C3 (racemic)	< 200 nM
O=C(c1ccc(F)cc1O[C@H]1C[C@H]2CC[C@@H](C1)N2CCO)N1Cc2nn3cc(Cl)cnc3c2C1 (single isomer, unassigned)	200 to 1000 nM
Cc1nc2c3c(nn2c(C)c1Cl)CN(C(=O)c1ccc(F)cc1O[C@H]1C[C@H]2CCC[C@@H](C1)N2C)C3	200 to 1000 nM

Next, consider the following molecule.
// molecule CCN1[C@@H]2CC[C@H]1C[C@@H](Oc1cc(F)ccc1C(=O)N1Cc3nn4cc(Cl)cnc4c3C1)C2 , assay human muscarinic acetylcholine M1 receptor (Homo sapiens), EC50 value: < 200 nM

====

- EXPERIMENTAL TARGET: human muscarinic acetylcholine M1 receptor (Homo sapiens)
- Construct: expressed in transfected cells; host or cells: CHO-K1
- PROCEDURE TEXT: M1 PAM Assay (IP-One HTRF, IP1 accumulation in M1-CHO cells)
- Type: cell-based
- STATED CONDITIONS: CHO-K1 cells stably transfected with human M1 receptor; compounds added with EC20 of acetylcholine (25 nM), 30 min; intracellular IP1 by IP-One HTRF; read-out: M1 PAM EC50
- Protocol: Then diluted compounds (0.6% DMSO final concentration) are added together with EC20 of acetylcholine and incubated with the cells for 30 min at 37° C., 5% CO2. CHO-K1 cells stably transfected with human muscarinic acetylcholine M1 receptor are cultured in Ham's F12 medium containing 10% heat inactivated fetal calf serum, 2 mM L-glutamine and Penicillin-Streptomycin grown in a humidified atmosphere at 5% CO2/95% air at 37° C.
pEC50: −log10 of the molar value.
READOUT: pEC50

Below, each entry is followed by its recorded pEC50 result.
COMPOUND	READOUT	RECORDED VALUE
Cc1ccc(CCOc2cc(F)ccc2C(=O)N2Cc3nn4c(C)c(Cl)c(C)nc4c3C2)cn1	pEC50	6.00 to 6.70
Cc1nc2c3c(nn2c(C)c1Cl)CN(C(=O)c1ccc(Br)cc1OCCN(C)C)C3	pEC50	6.00 to 6.70
Cc1nc2c3c(nn2c(C)c1Cl)CN(C(=O)c1ccc(F)cc1OCCN1CCC[C@H]1C)C3 (single isomer, unassigned)	pEC50	5.52 to 6.00
Cc1nc2c3c(nn2c(C)c1Cl)CN(C(=O)c1ccc(F)cc1OC[C@H]1CC(F)(F)CN1)C3	pEC50	> 6.70
Cc1nc2c3c(nn2c(C)c1Cl)CN(C(=O)c1ccccc1O[C@H]1COC[C@@H]1O)C3 (racemic)	pEC50	5.52 to 6.00
Cc1nc2c3c(nn2c(C)c1Cl)CN(C(=O)c1ccccc1O[C@H]1CCCC[C@@H]1O)C3 (racemic)	pEC50	5.52 to 6.00

Please turn your attention to the following entry.
Response field pEC50 (human muscarinic acetylcholine M1 receptor (Homo sapiens)) for item Cc1nc2c3c(nn2c(C)c1Cl)CN(C(=O)c1ccc(F)cc1O[C@H]1CC[C@@H](O)CC1)C3 (single isomer, unassigned) : 6.00 to 6.70

====

Each entry below carries its reported EC50.
- EXPERIMENTAL TARGET: human muscarinic acetylcholine M1 receptor (Homo sapiens)
- Construct: expressed in transfected cells; host or cells: CHO-K1
- PROCEDURE TEXT: M1 PAM Assay (IP-One HTRF, IP1 accumulation in M1-CHO cells)
- Assay type: cell-based
- STATED CONDITIONS: CHO-K1 cells stably transfected with human M1 receptor; compounds added with EC20 of acetylcholine (25 nM), 30 min; intracellular IP1 by IP-One HTRF; read-out: M1 PAM EC50
- Description: Then diluted compounds (0.6% DMSO final concentration) are added together with EC20 of acetylcholine and incubated with the cells for 30 min at 37° C., 5% CO2. CHO-K1 cells stably transfected with human muscarinic acetylcholine M1 receptor are cultured in Ham's F12 medium containing 10% heat inactivated fetal calf serum, 2 mM L-glutamine and Penicillin-Streptomycin grown in a humidified atmosphere at 5% CO2/95% air at 37° C.
Where a name gives a salt, the structure may show the parent alone.

Before answering, review these 8 worked examples.
MOLECULE	EC50
CCOC(=O)N1CCC(Oc2cc(F)ccc2C(=O)N2Cc3nn4c(C)c(Cl)c(C)nc4c3C2)CC1 [Example 28]	1 to 3 µM
Cc1nc2c3c(nn2c(C)c1Cl)CN(C(=O)c1ccc(F)cc1OC1CCN(CCO)CC1)C3 [Example 32]	< 0.2 µM
Cc1nc2c3c(nn2c(C)c1Cl)CN(C(=O)c1ccc(F)cc1O[C@H]1CNC[C@@H]1O)C3 (racemic) [Example 27]	0.2 to 1 µM
Cc1nc2c3c(nn2c(C)c1Cl)CN(C(=O)c1ccccc1O[C@H]1CCNC[C@@H]1O)C3 (single isomer, unassigned) [Example 5]	0.2 to 1 µM
Cc1nc2c3c(nn2c(C)c1Cl)CN(C(=O)c1ccccc1O[C@H]1CNC[C@H]1F)C3 (racemic) [Example 25]	0.2 to 1 µM
Cc1nc2c3c(nn2c(C)c1Cl)CN(C(=O)c1ccc(F)cc1O[C@H]1CCN[C@@H](C)C1)C3 (stereo in doubt) [Example 48, hydrochloride]	0.2 to 1 µM
Cc1nc2c3c(nn2c(C)c1Cl)CN(C(=O)c1ccc(F)cc1OC1CCN(C(CO)CO)CC1)C3 [Example 29]	< 0.2 µM
O=C(c1ccc(F)cc1O[C@H]1C[C@H]2CC[C@@H](C1)N2CC(F)F)N1Cc2nn3cc(Cl)cnc3c2C1 [Example 65]	0.2 to 1 µM

EC50 reported for this molecule Cc1nc2c3c(nn2c(C)c1Cl)CN(C(=O)c1ccc(F)cc1OC1CC(N)C1)C3 (stereo not drawn) [Example 61, hydrochloride] : < 0.2 µM

Kindly note the recorded EC50 for Cc1nc2c3c(nn2c(C)c1Cl)CN(C(=O)c1ccc(F)cc1OC1CN(CCF)C1)C3 [Example 46] , which is 1 to 3 µM
